Experiment: E. coli DRC41 culture turbidity changes, primary screen, E. coli filamentation inducer project, strain DRC41, OD650, 48 h (AID 1152);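 further: E. coli MC1000 strain DRC41 lacking acrAB efflux pump and sulA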
Settings: E. coli DRC41 (acrAB sulA), higher = more signal, called active from +8 up or from −8 down
Measured z-score, listed per entry for reference.
valueKind: z-score

> print(dat)
                          structurenotation  value
1  COc1ccc(CCNC(=O)[C@@]2(c3ccc([N+](=O)[O-])cc3)CC(=O)N(C3CCCCC3)[C@@H]2c2ccc(CO)cc2I)cc1  0.423
2  C=CCN1C(=O)[C@@]2(O[C@@H](CCO)[C@H]([Si](C)(C)c3ccc(OC)cc3)[C@H]2C)c2cc(N3CCCCC3=O)ccc21  0.424
3  C[C@@]1([C@@H](NS(=O)(=O)c2cccc3cccnc23)c2ccc(-c3ccccc3)cc2)C[C@H]1C1CCCCC1  -2.47

###

Assay: binders from COS7 lysate, DM2A8 probe, primary screen, torsin A project, cell lysate, small-molecule microarray, fluorescence 635/667 (AID 1065)
Details: higher = more signal, COS7 lysate expressing mutant human TOR1A
Use 0.7 as the dividing line for composite z-score, with the line itself on the True side and lower values as False.

compound	classification
COCCOC(=O)N1C(=O)[C@@]2(c3cc(C#CC4(O)CCCCCC4)ccc31)[C@H](C(N)=O)[C@H]1C(=O)O[C@H](c3ccccc3)[C@H](c3ccccc3)N1[C@@H]2c1ccc(OCCO)cc1	True
C=CCN1C(=O)[C@@]2(O[C@@H](CCO)[C@H]([Si](C)(C)c3ccc(OC)cc3)[C@H]2C)c2cc(N3CCCCC3=O)ccc21	False
CC[C@@H](O[Si](C#C[Si](C(C)C)(C(C)C)C(C)C)(C(C)C)C(C)C)c1cn([C@H](CO)Cc2ccccc2)nn1	False
COCCCNC(=O)[C@@]1(Cc2ccccc2I)c2ccccc2C(=O)N(C2CCCCC2)[C@H]1c1ccc(CO)cc1	False
[N-]=[N+]=NCc1ccccc1[C@H]1OC(c2ccc(OCCCO)cc2)=N[C@@]1(Cc1ccccc1N=[N+]=[N-])C(N)=O	True
[N-]=[N+]=Nc1ccccc1C[C@@]1(C(=O)NCC(O)CO)N=C(c2ccc(OCCCO)cc2)O[C@@H]1c1ccccc1N=[N+]=[N-] (stereo partly specified)	False
CC(C)C[C@@H]1NC(=O)[C@@H]2C[C@H](C(=O)NCCCCCNC(=O)CS)[C@H](c3ccc(O)cc3)N2C1=O	True
COCCOC(=O)N1C(=O)[C@@]2(c3cc(C#CCNC(N)=O)ccc31)[C@H](C(N)=O)[C@H]1C(=O)O[C@H](c3ccccc3)[C@H](c3ccccc3)N1[C@@H]2c1ccc(O)cc1	False
CCN1C(=O)C2CC(=O)C3C(CN(S(=O)(=O)c4ccc(C)cc4)C3c3ccc(C)cc3)C2C1=O (stereo unspecified)	False
CCCCCN1CC=CC23O[C@@H]4/C=C\CCCOC(=O)C4[C@H]2C(=O)N(CCCCCO)[C@@H]3C1=O (stereo partly specified)	False
CCCCN1CC=CC23O[C@@H]4C=CCCOC(=O)C4[C@H]2C(=O)N(CCO)[C@@H]3C1=O (stereo partly specified)	False
COc1c(C)cc(-c2nc(-c3ccccc3)c3c(c2C)CO[Si]3(C(C)C)C(C)C)cc1C	False
CC(C)[Si]1(C(C)C)OCc2cc(-c3ccc(-c4ccc(Cl)c(Cl)c4)o3)nc(-c3ccc(Oc4ccccc4)cc3)c21	False
COC(=O)C(CC#Cc1ccc2c(c1)[C@]1(C(=O)N2)[C@H](C(=O)N2CCCCCCC2)[C@H]2C(=O)O[C@H](c3ccccc3)[C@H](c3ccccc3)N2[C@@H]1c1ccc(OCCO)cc1)C(=O)OC	True
O=C1C2C=CC(C(O)C(c3ccccc3)c3ccccc3)N(Nc3ccccc3F)C2C(=O)N1c1ccccc1 (stereo unspecified)	True
COC(=O)[C@@]1(Cc2ccc(F)cc2)[C@@H]2C(=CC(=O)[C@H]2CC(=O)C(=O)N2CCCC2)CN1C(=O)c1ccccc1	True
CCOC(=O)C1=CCC(c2cccn2C(=O)OC(C)(C)C)N(S(=O)(=O)c2ccc(C)cc2)C1 (stereo unspecified)	False
C=CCOC(=O)[C@H]1[C@@H]2C(=O)O[C@@H](c3ccccc3)[C@@H](c3ccccc3)N2[C@@H](c2ccc(OCCOC(=O)[C@H]3C[C@H]4C(=O)NCC(=O)N4[C@H]3c3ccc(O)cc3)cc2)[C@]12C(=O)Nc1ccccc12	True
CC(=O)NCCCC[C@@H]1NC(=O)[C@H]2C[C@@H](C(=O)O)[C@@H](c3cccc(OCCO)c3)N2C1=O	True
C=C[C@H](C)[C@@H](OC(=O)Nc1ccc(SC)cc1)c1ccc(OCCO)cc1	False

###

Tested on: Sam68 (KHDRBS1)
Assay: Sam68 small-molecule binders, primary screen, biochemical, small-molecule microarray, 635 nm fluorescence (AID 1125);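 further: score merges 667 nm channel intensity with signal to noise over triplicate slides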
Conditions: small-molecule microarray binding, higher = more signal
Use 0.7 as the dividing line for composite z-score, with the line itself on the true side and lower values as false.

compound	classification
COc1ccc([Si](C)(C)[C@H]2[C@H](CC(=O)N3CCC[C@H]3CO)O[C@@]3(C(=O)N(Cc4cccc(N5CCCCC5=O)c4)c4ccccc43)[C@@H]2C)cc1	true
C=CC[C@H](OC(=O)Nc1ccc(SC)cc1)c1ccc(O)c(F)c1	false
Cc1cccc([C@H]2C[C@H]3C(Br)=C[C@@]2(CO)C(=O)[C@]32CO2)c1	false
COc1ccc([Si](C)(C)[C@H]2[C@H](CC(=O)N3CCC[C@H]3CO)O[C@@]3(C(=O)N(C)c4ccccc43)[C@@H]2C)cc1	false
COc1ccc([Si](C)(C)[C@H]2[C@H](CCO)O[C@@]3(C(=O)N(Cc4ccccc4)c4ccc(NC(=O)[C@H](C)O)cc43)[C@@H]2C)cc1	false
O=C1C2C=CC(C(O)C(c3ccccc3)c3ccccc3)N(Nc3ccccc3F)C2C(=O)N1c1ccccc1 (stereo unspecified)	true
COC(=O)[C@@]1(Cc2ccc(F)cc2)[C@H]2c3cc(C(=O)N4CCCC4)n(CCSCCO)c3C[C@H]2CN1C(=O)c1ccccc1	false
O=C1OCC=C[C@H]2OC34C=CCN(Cn5nnc6ccccc65)C(=O)[C@H]3N(CCO)C(=O)[C@@H]4[C@@H]12 (stereo partly specified)	false
C=C[C@H](OC)[C@@H](O)c1ccc(OC)c(O)c1	false
CC(C)(C)OC(=O)CC[C@]1(C(=O)N2CCOCC2)COC(c2ccc(OCCCO)cc2)=N1	true
CC1CC/C=C\[C@H]2OC34C=CCN(C(C)C)C(=O)[C@H]3N(C(C)CO)C(=O)[C@@H]4C2C(=O)O1 (stereo partly specified)	false
COCCCNC(=O)[C@@]1(Cc2ccccc2I)c2ccccc2C(=O)N(Cc2ccccc2OC)[C@H]1c1ccc(CO)cc1	false
COc1ccc(CCNC(=O)[C@@H]2c3ccccc3C(=O)N(Cc3cc(F)cc(C(F)(F)F)c3)[C@H]2c2ccc(CO)cc2)cc1	true
CCCCCCCCCCC(O)C1C=CC2C(=O)N(C)C(=O)C2N1Nc1ccccc1 (stereo unspecified)	false
[N-]=[N+]=NCc1ccccc1[C@H]1OC(c2ccc(OCCCO)cc2)=N[C@@]1(CCS(=O)(=O)c1ccccc1)C(=O)NCCN1CCOCC1	true
Cc1ccc(S[C@]2(C(=O)NC3CC3)CC(=O)N(C3Cc4ccccc4C3)[C@@H]2c2ccc(CO)cc2I)cc1	false
COc1ccc(NN2C(C(O)c3ccc(F)cc3)C=CC3C(=O)N(C4CCCCC4)C(=O)C32)cc1 (stereo unspecified)	true
C=CCOC(=O)[C@H]1[C@@H]2C(=O)O[C@@H](c3ccccc3)[C@@H](c3ccccc3)N2[C@@H](c2ccc(OCCOC(=O)[C@@H]3C[C@@H]4C(=O)N[C@@H](Cc5ccccc5)C(=O)N4[C@@H]3c3ccc(O)cc3)cc2)[C@]12C(=O)Nc1ccc(I)cc12	true
O=C1O[C@H](c2ccccc2)[C@H](c2ccccc2)N2[C@H]1[C@@H](C(=O)O)[C@]1(C(=O)Nc3ccc(C#CC4(O)CCCCCC4)cc31)[C@H]2c1ccccc1OCCO	true
CCOC(=O)C[C@H]1[C@H](OC(=O)c2ccc(-c3ccccc3)cc2)[C@@H](NC(=O)c2ccc(-c3ccccc3)cc2)c2cc(OCCCO)ccc2N1C(=O)c1ccccc1	true
CCN1C(=O)C2CC(=O)C3C(CN(S(=O)(=O)c4ccc(C)cc4)C3c3ccc(C)cc3)C2C1=O (stereo unspecified)	true
COC(=O)C(CC#Cc1ccc2c(c1)[C@]1(C(=O)N2)[C@H](C(=O)N2CCN(c3ncccn3)CC2)[C@H]2C(=O)O[C@H](c3ccccc3)[C@H](c3ccccc3)N2[C@@H]1c1ccc(O)cc1)C(=O)OC	true
CC1C2C(CCCO)=CC(C3C(=O)N(C)C(=O)C23)N1Cc1cccc(OC(F)(F)F)c1 (stereo unspecified)	true
O=C1O[C@@H](c2ccccc2)[C@@H](c2ccccc2)N2[C@@H](c3ccc(OCCO)cc3)[C@]3(C(=O)Nc4ccc(C#CC5=CCCCC5)cc43)[C@@H](C(=O)Nc3nc4ccccc4s3)[C@H]12	true

Numbers sourced from PubChem BioAssay.
